Data credit: patent US10201532B2

- System: KPC-3 expressing E. coli (J53 R6206)
- method: microbe, parasite or virus in culture
- Format: cell-based, Escherichia coli
- measurementContext: no BLI; E. coli J53 R6206
valueType: MIC of veterinary cephalosporin alone (no BLI)

Below are worked cases with known answers.
> print(dat)
                                entrysmiles  experimentalresult
1  CO/N=C(\C(=O)N[C@@H]1C(=O)N2C(C(=O)O)=C(CSC(=O)c3ccco3)CS[C@H]12)c1csc(N)n1            16 µg/mL
2  NC(=O)c1cc[n+](CC2=C(C(=O)[O-])N3C(=O)[C@@H](NC(=O)Cc4cccs4)[C@H]3SC2)cc1            32 µg/mL
3  CC1=C(C(=O)O)N2C(=O)[C@@H](NC(=O)[C@H](N)c3ccc(O)cc3)[C@H]2SC1           >32 µg/mL

QUERY: State MIC of veterinary cephalosporin alone (no BLI) (KPC-3 expressing E. coli (J53 R6206)) of CO/N=C(\C(=O)N[C@@H]1C(=O)N2C(C(=O)[O-])=C(C[n+]3cccc4c3CCCC4)CS[C@H]12)c1csc(N)n1 .
RESULT: 16 µg/mL

====

MIC of Ceftazidime in combination with BLI values for the molecules below.
- System: KPC-3 expressing E. coli (J53 R6206)
- method: Synergistic broth micro-dilution MIC (checkerboard)
- Assay type: cell-based, Escherichia coli
- measurementContext: BLI at 4 μg/mL
Quick reminder: number only, in mg/L, skip the unit.

Solved cases (3 shown):
> print(dat)
                                   molecule  experimentalresult
1  CC1(C)[C@H](C(=O)O)N2C(=O)C[C@H]2S1(=O)=O [Sulbactam]                  32
2  C[C@]1(Cn2ccnn2)[C@H](C(=O)O)N2C(=O)C[C@H]2S1(=O)=O [Tazobactam]                  32
3  O=C(O)[C@H]1/C(=C/CO)O[C@@H]2CC(=O)N21 [Clavulanic acid]                  32

Then this molecule:
QUERY: Give a short answer stating reported MIC of Ceftazidime in combination with BLI for C[n+]1ccn(C[C@@]2(C)[C@H](C(=O)[O-])N3C(=O)C[C@H]3S2(=O)=O)n1 [Compound-1] .
RESULT: 1

====

- Tested on: KPC-3 expressing E. coli (J53 R6206)
- method: Synergistic broth micro-dilution MIC (checkerboard)
- Assay type: cell-based, Escherichia coli
- measurementContext: BLI at 8 μg/mL
valueType: MIC of Imipenem in combination with BLI (µg/mL)
Note: unit µg/mL is implicit; provide only the numeric part.

Solved cases (3 shown):
> print(dat)
                                entrysmiles  experimentalresult
1  C[n+]1ccn(C[C@@]2(C)[C@H](C(=O)[O-])N3C(=O)C[C@H]3S2(=O)=O)n1                 0.5
2    O=C(O)[C@H]1/C(=C/CO)O[C@@H]2CC(=O)N21                 0.5
3  CC1(C)[C@H](C(=O)O)N2C(=O)C[C@H]2S1(=O)=O                   2

Next:
QUERY: Note MIC of Imipenem in combination with BLI for the compound shown: C[C@]1(Cn2ccnn2)[C@H](C(=O)O)N2C(=O)C[C@H]2S1(=O)=O
RESULT: 1

====

- Test system: KPC-3 expressing E. coli (J53 R6206)
- method: Synergistic broth micro-dilution MIC (checkerboard)
- Type: cell-based, Escherichia coli
- measurementContext: BLI at 8 μg/mL
Reported values of MIC of Ceftobiprole in combination with BLI for individual entries
Only the number, expressed in µg/mL, is required.

> print(dat)
                                entrysmiles  unitsymbol  experimentalresult
1  CC1(C)[C@H](C(=O)O)N2C(=O)C[C@H]2S1(=O)=O       µg/mL                  16

QUERY: State, in one line, measured MIC of Ceftobiprole in combination with BLI of O=C(O)[C@H]1/C(=C/CO)O[C@@H]2CC(=O)N21
RESULT: 2

QUERY: Give MIC of Ceftobiprole in combination with BLI for the following compound: C[C@]1(Cn2ccnn2)[C@H](C(=O)O)N2C(=O)C[C@H]2S1(=O)=O
RESULT: 16

====

Reported MIC of Cefotaxime in combination with BLI is given for each of the following compounds.
- Test system: KPC-2 producing K. pneumoniae (ATCC BAA-1705)
- method: Synergistic broth micro-dilution MIC (checkerboard)
- Type: cell-based, Klebsiella pneumoniae
- measurementContext: BLI at 2 μg/mL; ATCC BAA-1705

Use these answered entries as a reference point.
> print(dat)
                                entrysmiles                           targetundertest  experimentalresult
1    O=C(O)[C@H]1/C(=C/CO)O[C@@H]2CC(=O)N21  KPC-2 producing K. pneumoniae (ATCC BAA-1705)      32 to 64 µg/mL
2  C[n+]1ccn(C[C@@]2(C)[C@H](C(=O)[O-])N3C(=O)C[C@H]3S2(=O)=O)n1  KPC-2 producing K. pneumoniae (ATCC BAA-1705)            32 µg/mL

QUERY: Write down MIC of Cefotaxime in combination with BLI measured for item CC1(C)[C@H](C(=O)O)N2C(=O)C[C@H]2S1(=O)=O
RESULT: >64 µg/mL

QUERY: Given C[C@]1(Cn2ccnn2)[C@H](C(=O)O)N2C(=O)C[C@H]2S1(=O)=O , respond with its MIC of Cefotaxime in combination with BLI.
RESULT: ≥64 µg/mL
